The values you see were collected from paper PMC7006766.

biological target: hCA I (Homo sapiens); construct: made in house; format: biochemical
Sequence (P00915 whole entry): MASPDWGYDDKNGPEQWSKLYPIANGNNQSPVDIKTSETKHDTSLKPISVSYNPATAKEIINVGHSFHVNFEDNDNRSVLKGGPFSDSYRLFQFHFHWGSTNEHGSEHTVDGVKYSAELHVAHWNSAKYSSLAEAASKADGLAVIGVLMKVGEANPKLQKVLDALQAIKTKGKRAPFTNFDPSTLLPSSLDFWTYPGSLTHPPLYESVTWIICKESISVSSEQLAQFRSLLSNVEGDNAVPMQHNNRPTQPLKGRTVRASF
READOUT_LABEL: Ki

Query `CC1(C)O[C@@H]1COc1c2occc2cc2ccc(=O)oc12` yields Ki of > 10 µM

----------
test system: HeLa cells; experiment: MTT cytotoxic assay in cancer HeLa cells; format: cell-based; conditions: Homo sapiens, HeLa, 48 h, read-out: IC50 (concentration of compound that reduces the cell viability to 50%)
pIC50: −log10 of the molar value.
Answer each item with its documented pIC50.

COMPOUND	pIC50
COc1c2ccoc2c(OC/C=C(\C)CO)c2oc(=O)ccc12	< 4.00
CC(C)(O)[C@H](O)COc1c2occc2cc2ccc(=O)oc12 [Compound 9, (-)-heraclenol]	< 4.00

Kindly review the next compound as well.
Query `COc1cc2ccc(=O)oc2c2c1O[C@H](C(C)(C)O)C2` yields pIC50 of < 4.00
